This collection of values is drawn from patent US9708336B2.

System: Serratia marcescens expressing IMP-1 (CL5741)
Protocol: Antibiotic potentiation activity: synergistic concentration (MITC95) with imipenem, OD600 growth
Type: cell-based
Applied Conditions: concentration giving 95% inhibition of bacterial growth
Assignment: determine reported Serratia marcescens expressing IMP-1 (CL5741) MITC95 for the given compounds.
API: value field is a number in µM; no unit string.

QUERY: Record request: Serratia marcescens expressing IMP-1 (CL5741) MITC95 value, item NS(=O)(=O)c1cccc(-c2ccc(CC3OC(=O)NC3=O)cc2)c1-c1nn[nH]n1 (stereo not shown)
RESULT: 6.25

QUERY: Record request: Serratia marcescens expressing IMP-1 (CL5741) MITC95 value, item `CN(C)CCC1CCN(c2ccnc(S(N)(=O)=O)c2-c2nnn[nH]2)CC1`
RESULT: 37.5

QUERY: Record request: Serratia marcescens expressing IMP-1 (CL5741) MITC95 value, item CC1C(=O)Nc2ccc(-c3cccc(S(N)(=O)=O)c3-c3nn[nH]n3)cc21 (stereo not shown)
RESULT: 18.75

QUERY: Record request: Serratia marcescens expressing IMP-1 (CL5741) MITC95 value, item `NS(=O)(=O)c1cccc(C2=CCCOC2)c1-c1nn[nH]n1`
RESULT: 50

QUERY: Record request: Serratia marcescens expressing IMP-1 (CL5741) MITC95 value, item `NS(=O)(=O)c1cccc(CCC2CCCCC2)c1-c1nnn[nH]1`
RESULT: 0.3906

QUERY: Record request: Serratia marcescens expressing IMP-1 (CL5741) MITC95 value, item `NS(=O)(=O)c1nccc(-c2ccc(CO)nc2)c1-c1nnn[nH]1`
RESULT: 50

QUERY: Record request: Serratia marcescens expressing IMP-1 (CL5741) MITC95 value, item `NS(=O)(=O)c1nccc(N2CCC(N3CCOCC3)CC2)c1-c1nnn[nH]1`
RESULT: 50

QUERY: Record request: Serratia marcescens expressing IMP-1 (CL5741) MITC95 value, item `NS(=O)(=O)c1cccc(-c2ccc3[nH]c(=O)[nH]c3c2)c1-c1nn[nH]n1`
RESULT: 50

QUERY: Record request: Serratia marcescens expressing IMP-1 (CL5741) MITC95 value, item `COc1cncc(-c2cccc(S(N)(=O)=O)c2-c2nn[nH]n2)n1`
RESULT: 200

QUERY: Record request: Serratia marcescens expressing IMP-1 (CL5741) MITC95 value, item `NS(=O)(=O)c1nccc(-c2ccc3cccnc3c2)c1-c1nn[nH]n1`
RESULT: 37.5

QUERY: Record request: Serratia marcescens expressing IMP-1 (CL5741) MITC95 value, item `NS(=O)(=O)c1ccc(-c2cccc(S(N)(=O)=O)c2-c2nn[nH]n2)cc1`
RESULT: 6.25

QUERY: Record request: Serratia marcescens expressing IMP-1 (CL5741) MITC95 value, item `CONC(=O)c1ccc(-c2cccc(S(N)(=O)=O)c2-c2nn[nH]n2)cc1`
RESULT: 12.5

QUERY: Record request: Serratia marcescens expressing IMP-1 (CL5741) MITC95 value, item `NS(=O)(=O)c1cccc(-c2ccnnc2)c1-c1nn[nH]n1`
RESULT: 50

QUERY: Record request: Serratia marcescens expressing IMP-1 (CL5741) MITC95 value, item `NS(=O)(=O)c1cccc(-c2cnn3ccccc23)c1-c1nn[nH]n1`
RESULT: 7.813

QUERY: Record request: Serratia marcescens expressing IMP-1 (CL5741) MITC95 value, item `Cc1ccccc1-c1ccnc(S(N)(=O)=O)c1-c1nn[nH]n1`
RESULT: 25

QUERY: Record request: Serratia marcescens expressing IMP-1 (CL5741) MITC95 value, item `NS(=O)(=O)c1cccc(CC2CCCCC2)c1-c1nnn[nH]1`
RESULT: 2.344

QUERY: Record request: Serratia marcescens expressing IMP-1 (CL5741) MITC95 value, item `NS(=O)(=O)c1cccc(-c2csc3ccccc23)c1-c1nn[nH]n1`
RESULT: 15.63

QUERY: Record request: Serratia marcescens expressing IMP-1 (CL5741) MITC95 value, item `NS(=O)(=O)c1cccc(-c2cncnc2)c1-c1nn[nH]n1`
RESULT: 200

QUERY: Record request: Serratia marcescens expressing IMP-1 (CL5741) MITC95 value, item `NS(=O)(=O)c1cccc(-c2cnn(CCN3CCOCC3)c2)c1-c1nnn[nH]1`
RESULT: 25
